List of pIC50 values.
# Target system: CRBN/DDB1 (Homo sapiens, UniProt Q96SW2)
# Sequence (Q96SW2 whole entry): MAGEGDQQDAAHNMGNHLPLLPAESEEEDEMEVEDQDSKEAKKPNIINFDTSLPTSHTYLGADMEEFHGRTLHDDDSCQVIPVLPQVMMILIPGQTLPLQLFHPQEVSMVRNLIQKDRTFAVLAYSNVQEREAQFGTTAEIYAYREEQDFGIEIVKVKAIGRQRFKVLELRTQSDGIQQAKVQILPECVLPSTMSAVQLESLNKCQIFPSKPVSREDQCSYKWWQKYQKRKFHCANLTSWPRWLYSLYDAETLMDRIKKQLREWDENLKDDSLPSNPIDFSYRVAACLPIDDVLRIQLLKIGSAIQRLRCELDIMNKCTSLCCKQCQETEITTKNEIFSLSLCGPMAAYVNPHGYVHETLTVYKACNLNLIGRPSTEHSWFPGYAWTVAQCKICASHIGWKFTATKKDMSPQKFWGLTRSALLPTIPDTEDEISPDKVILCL
# Sequence (Q16531 whole entry partner): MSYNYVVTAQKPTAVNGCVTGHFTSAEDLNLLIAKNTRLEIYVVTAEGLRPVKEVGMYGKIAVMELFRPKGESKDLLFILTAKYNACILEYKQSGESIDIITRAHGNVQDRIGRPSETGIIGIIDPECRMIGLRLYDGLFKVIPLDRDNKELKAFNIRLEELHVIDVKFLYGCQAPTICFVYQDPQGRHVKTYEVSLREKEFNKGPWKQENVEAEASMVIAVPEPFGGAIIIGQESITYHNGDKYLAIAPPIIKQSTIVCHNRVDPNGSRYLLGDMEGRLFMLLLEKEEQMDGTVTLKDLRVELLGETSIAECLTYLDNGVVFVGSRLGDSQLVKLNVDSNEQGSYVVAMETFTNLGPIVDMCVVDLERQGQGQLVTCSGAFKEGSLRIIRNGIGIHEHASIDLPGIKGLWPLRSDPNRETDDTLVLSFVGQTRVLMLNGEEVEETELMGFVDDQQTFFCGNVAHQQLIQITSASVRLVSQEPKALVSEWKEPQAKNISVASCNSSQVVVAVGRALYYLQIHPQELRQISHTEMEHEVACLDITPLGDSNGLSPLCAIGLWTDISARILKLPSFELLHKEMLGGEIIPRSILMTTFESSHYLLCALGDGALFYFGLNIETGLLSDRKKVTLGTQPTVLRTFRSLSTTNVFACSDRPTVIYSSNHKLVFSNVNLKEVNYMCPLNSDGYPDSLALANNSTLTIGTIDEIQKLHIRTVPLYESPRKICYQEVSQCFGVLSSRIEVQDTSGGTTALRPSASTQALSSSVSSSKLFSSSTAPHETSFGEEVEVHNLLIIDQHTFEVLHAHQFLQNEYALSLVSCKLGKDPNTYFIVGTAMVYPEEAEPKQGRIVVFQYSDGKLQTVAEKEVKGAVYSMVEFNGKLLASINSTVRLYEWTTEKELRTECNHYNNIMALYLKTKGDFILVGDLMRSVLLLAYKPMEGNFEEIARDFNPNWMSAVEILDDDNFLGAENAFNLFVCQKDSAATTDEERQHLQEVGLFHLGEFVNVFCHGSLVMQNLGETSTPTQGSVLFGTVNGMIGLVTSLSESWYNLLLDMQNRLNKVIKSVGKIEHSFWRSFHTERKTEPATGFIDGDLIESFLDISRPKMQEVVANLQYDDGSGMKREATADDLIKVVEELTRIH
# Measurement description: biochemical
pIC50: −log10 of the molar value.

Compound	pIC50
O=C1CCC(Nc2ccc3c(c2)COC32CCNCC2)C(=O)N1 (stereo not shown)	5.30 to 6.30
Cc1cc([C@]23CCNC[C@H]2C3(F)F)ccc1N[C@H]1CCC(=O)NC1=O	< 5.30
Cc1cc([C@@]23CCNC[C@@H]2C3(F)F)ccc1N[C@H]1CCC(=O)NC1=O	5.30 to 6.30

Lab note: next compound to report on.
Entry O=C1CCC(Nc2ccc3c(c2)OCC32CCNCC2)C(=O)N1 (stereo in doubt) [Compound 12] needs its pIC50 filled in; supply it.
5.30 to 6.30

* * *

List of pIC50 values.
# Target system: CRBN/DDB1 (Homo sapiens, UniProt Q96SW2)
# Measurement description: biochemical
pIC50: −log10 of the molar value.

Determine reported pIC50 for O=C1CC[C@H](Nc2ccc([C@@]34CCNC[C@@H]3C4(F)F)cc2)C(=O)N1 (single isomer, unassigned) ; test system: CRBN/DDB1 (Homo sapiens, UniProt Q96SW2).
5.30 to 6.30

Determine reported pIC50 for O=C1CC[C@@H](Oc2ccc3c(c2)OCC32CCNCC2)C(=O)N1 ; test system: CRBN/DDB1 (Homo sapiens, UniProt Q96SW2).
5.30 to 6.30

Determine reported pIC50 for Cc1cc([C@]23CCNC[C@H]2C3(F)F)ccc1N[C@@H]1CCC(=O)NC1=O ; test system: CRBN/DDB1 (Homo sapiens, UniProt Q96SW2).
5.30 to 6.30

* * *

List of IC50 values.
# Target system: CRBN/DDB1 (Homo sapiens, UniProt Q96SW2)
# Measurement description: biochemical

Compound	Measured parameter	Result value
Cc1cc([C@@]23CCNC[C@@H]2C3(F)F)ccc1N[C@@H]1CCC(=O)NC1=O [Compound 7]	IC50	> 5000 nM
O=C1CC[C@@H](Nc2ccc([C@]34CCNC[C@H]3C4(F)F)cc2)C(=O)N1 [Compound 3]	IC50	500 to 5000 nM

Lab note: next compound to report on.
Entry O=C1CC[C@@H](Nc2ccc([C@@]34CCNC[C@@H]3C4(F)F)cc2)C(=O)N1 (single isomer, unassigned) [Compound 2] needs its IC50 filled in; supply it.
500 to 5000 nM

* * *

List of IC50 values.
# Target system: CRBN/DDB1 (Homo sapiens)
# Measurement description: biochemical
Counter-ions that a name gives are not always drawn.

Here's what some known entries look like.
Compound	Result value
O=C1CC[C@H](Nc2ccc([C@]34CCNC[C@H]3C4(F)F)cc2)C(=O)N1	500 to 5000 nM
O=C1CCC2(CC1)COc1cc(NC3CCC(=O)NC3=O)ccc12 (stereo not shown)	500 to 5000 nM
O=C1CCC(Nc2cc(F)c3c(c2)OCC32CCNCC2)C(=O)N1 (stereo not shown) [Compound 19, HCl salt]	50 to 500 nM
O=C1CCC(Nc2cc3c(cc2F)C2(CCNCC2)CO3)C(=O)N1 (stereo not shown) [Compound 18, HCl salt]	500 to 5000 nM
O=C1CCC(Nc2ccc3c(c2)OCC32CCNCC2)C(=O)N1 (stereo in doubt) [Compound 11]	50 to 500 nM

Entry O=C1CCC(Nc2ccc3c(c2)OCC32CCNCC2(F)F)C(=O)N1 (stereo not shown) needs its IC50 filled in; supply it.
500 to 5000 nM

Entry O=C1CC[C@H](Oc2ccc3c(c2)OCC32CCNCC2)C(=O)N1 needs its IC50 filled in; supply it.
500 to 5000 nM
